readout.name: melting point

Worked set:
- molecule: "O=C(CC1CCCCC1)NC1CC(C(=O)O)Nc2cc(Cl)cc(Cl)c21 (stereo unspecified)"
  val: "197 to 200 °C"
- molecule: "COc1nc(Cl)cc2nc(S(=O)(=O)Nc3ccn(C)n3)nn12"
  val: "185 to 187 °C"
- molecule: "CCCCc1nc(Cl)c(C(=O)O)n1Cc1ccc2oc(-c3ccccc3-c3nnn[nH]3)c(Br)c2c1"
  val: "183 to 185 °C"

State the recorded melting point for this entry: `CS(=O)(=O)c1ccc(C2=C(c3ccc(F)cc3)CCC2)cc1`
138 to 139 °C

State the recorded melting point for this entry: CC12CC(O)CCC1CCC1C2CCC2(C)C(O)C(N3CCCCC3)CC12 (stereo unspecified)
215 to 219 °C

State the recorded melting point for this entry: `O=c1[nH]c2c(Cl)cccc2c(=O)n1CCCN1CC=C(c2cccc(Cl)c2)CC1`
210 to 215 °C
